# target: RAC-alpha serine/threonine-protein kinase (Homo sapiens)
# Sequence (P31749 whole entry): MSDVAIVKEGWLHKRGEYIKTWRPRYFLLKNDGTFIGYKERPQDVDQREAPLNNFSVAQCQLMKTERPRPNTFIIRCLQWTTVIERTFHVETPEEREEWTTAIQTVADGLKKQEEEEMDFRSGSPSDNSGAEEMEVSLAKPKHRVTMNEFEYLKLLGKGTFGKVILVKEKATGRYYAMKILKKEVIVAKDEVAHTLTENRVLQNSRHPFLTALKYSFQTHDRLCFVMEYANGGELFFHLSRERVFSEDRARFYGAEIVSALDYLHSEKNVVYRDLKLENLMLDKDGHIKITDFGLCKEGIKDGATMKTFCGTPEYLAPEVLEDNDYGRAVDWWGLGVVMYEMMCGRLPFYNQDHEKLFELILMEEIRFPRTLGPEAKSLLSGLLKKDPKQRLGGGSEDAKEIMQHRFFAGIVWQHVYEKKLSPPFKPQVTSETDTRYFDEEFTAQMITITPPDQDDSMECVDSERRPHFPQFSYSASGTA
# assayText: Inhibition of Akt1 (unknown origin) using ATP/eNOS as substrate at 10 uM preincubated for 5 mins followed by substrate addition measured after 30 mins by fluorescence polarization assay
Assign true whenever inhibition does not fall below 20%; assign false whenever it does.

1) Clc1ccc(C(Nc2ccccc2)c2ccc(-c3cn[nH]c3)cc2)cc1 (stereo not given): true
2) CC(C)CNC(c1ccc(Cl)cc1)c1ccc(-c2cccnc2)cc1 (stereo not given): false
3) Clc1ccc(C(Nc2ccccc2)c2ccc(-c3ccncc3)cc2)cc1 (stereo not given): true
4) CC(C)(C)NC(c1ccc(Cl)cc1)c1ccc(-c2cccnc2)cc1 (stereo not given): false

----------
# target: Serine/threonine-protein kinase B-raf (Homo sapiens, UniProt P15056)
# Sequence (P15056 whole entry): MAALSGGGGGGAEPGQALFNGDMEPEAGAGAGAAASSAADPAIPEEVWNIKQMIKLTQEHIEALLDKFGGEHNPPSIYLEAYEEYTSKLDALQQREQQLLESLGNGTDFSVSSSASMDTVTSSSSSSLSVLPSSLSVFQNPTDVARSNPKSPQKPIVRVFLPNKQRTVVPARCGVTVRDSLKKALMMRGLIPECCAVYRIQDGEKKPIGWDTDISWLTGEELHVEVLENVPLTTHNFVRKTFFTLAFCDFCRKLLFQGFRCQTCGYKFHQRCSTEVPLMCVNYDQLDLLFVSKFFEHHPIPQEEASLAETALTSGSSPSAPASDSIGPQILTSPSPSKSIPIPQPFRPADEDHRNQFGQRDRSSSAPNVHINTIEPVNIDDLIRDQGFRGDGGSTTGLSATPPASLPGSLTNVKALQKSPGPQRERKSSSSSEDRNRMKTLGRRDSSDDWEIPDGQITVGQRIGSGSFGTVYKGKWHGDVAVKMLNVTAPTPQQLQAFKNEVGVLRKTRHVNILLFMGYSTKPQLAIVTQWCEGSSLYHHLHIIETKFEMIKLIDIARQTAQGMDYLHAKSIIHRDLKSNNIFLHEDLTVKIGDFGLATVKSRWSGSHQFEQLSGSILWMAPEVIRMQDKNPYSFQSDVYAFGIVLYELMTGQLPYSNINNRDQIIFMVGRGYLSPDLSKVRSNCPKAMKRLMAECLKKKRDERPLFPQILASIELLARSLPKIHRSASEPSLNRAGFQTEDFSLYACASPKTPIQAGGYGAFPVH
# assayText: Inhibition of BRAF1 (unknown origin)
assayEndpoint: IC50 (nM)

1. CC(C)(C)NC(c1ccc(Cl)cc1)c1ccc(-c2cn[nH]c2)cc1 (stereo unspecified): 880

----------
# assayText: Inhibition of Drak (unknown origin)
# Parameters: species or system Homo sapiens
pIC50: −log10 of the molar value.
assayEndpoint: pIC50

1. CN[C@@H]1C[C@H]2O[C@@](C)([C@@H]1OC)n1c3ccccc3c3c4c(c5c6ccccc6n2c5c31)C(=O)NC4: 7.59
